Cited source for all entries: ChEMBL document CHEMBL1148598

biological target: Excitatory amino acid transporter 1 (Homo sapiens, UniProt P43003); assay: Activity against human EAAT1 transfected in HEK293 cells
Sequence (P43003 whole entry): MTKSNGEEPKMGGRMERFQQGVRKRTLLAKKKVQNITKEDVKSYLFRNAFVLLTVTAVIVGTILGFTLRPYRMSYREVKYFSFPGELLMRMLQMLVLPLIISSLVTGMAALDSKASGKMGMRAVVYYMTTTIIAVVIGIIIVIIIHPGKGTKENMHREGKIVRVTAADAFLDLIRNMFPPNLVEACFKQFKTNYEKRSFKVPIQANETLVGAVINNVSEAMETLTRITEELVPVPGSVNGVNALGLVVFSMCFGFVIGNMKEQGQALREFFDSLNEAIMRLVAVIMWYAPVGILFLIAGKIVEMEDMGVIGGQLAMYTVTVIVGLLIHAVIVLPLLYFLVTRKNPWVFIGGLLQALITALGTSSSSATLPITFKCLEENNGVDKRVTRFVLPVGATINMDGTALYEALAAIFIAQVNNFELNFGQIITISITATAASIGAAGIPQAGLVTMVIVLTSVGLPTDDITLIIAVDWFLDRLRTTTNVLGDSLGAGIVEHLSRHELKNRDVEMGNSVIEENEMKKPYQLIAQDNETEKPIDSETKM
measured.property: Ki (µM)

| compound | qualifying.sign | measured.number |
| --- | --- | --- |
| O=C(O)[C@H]1CC[C@H]2CN[C@H](C(=O)O)[C@H]21 | = | 127 |
| O=C(O)[C@H]1CC2CC1[C@@H](C(=O)O)N2 (some centres not stated) | > | 400 |

====

biological target: Metabotropic glutamate receptor 1 (Homo sapiens); assay: Activity against mGluR1
Sequence (Q13255 whole entry): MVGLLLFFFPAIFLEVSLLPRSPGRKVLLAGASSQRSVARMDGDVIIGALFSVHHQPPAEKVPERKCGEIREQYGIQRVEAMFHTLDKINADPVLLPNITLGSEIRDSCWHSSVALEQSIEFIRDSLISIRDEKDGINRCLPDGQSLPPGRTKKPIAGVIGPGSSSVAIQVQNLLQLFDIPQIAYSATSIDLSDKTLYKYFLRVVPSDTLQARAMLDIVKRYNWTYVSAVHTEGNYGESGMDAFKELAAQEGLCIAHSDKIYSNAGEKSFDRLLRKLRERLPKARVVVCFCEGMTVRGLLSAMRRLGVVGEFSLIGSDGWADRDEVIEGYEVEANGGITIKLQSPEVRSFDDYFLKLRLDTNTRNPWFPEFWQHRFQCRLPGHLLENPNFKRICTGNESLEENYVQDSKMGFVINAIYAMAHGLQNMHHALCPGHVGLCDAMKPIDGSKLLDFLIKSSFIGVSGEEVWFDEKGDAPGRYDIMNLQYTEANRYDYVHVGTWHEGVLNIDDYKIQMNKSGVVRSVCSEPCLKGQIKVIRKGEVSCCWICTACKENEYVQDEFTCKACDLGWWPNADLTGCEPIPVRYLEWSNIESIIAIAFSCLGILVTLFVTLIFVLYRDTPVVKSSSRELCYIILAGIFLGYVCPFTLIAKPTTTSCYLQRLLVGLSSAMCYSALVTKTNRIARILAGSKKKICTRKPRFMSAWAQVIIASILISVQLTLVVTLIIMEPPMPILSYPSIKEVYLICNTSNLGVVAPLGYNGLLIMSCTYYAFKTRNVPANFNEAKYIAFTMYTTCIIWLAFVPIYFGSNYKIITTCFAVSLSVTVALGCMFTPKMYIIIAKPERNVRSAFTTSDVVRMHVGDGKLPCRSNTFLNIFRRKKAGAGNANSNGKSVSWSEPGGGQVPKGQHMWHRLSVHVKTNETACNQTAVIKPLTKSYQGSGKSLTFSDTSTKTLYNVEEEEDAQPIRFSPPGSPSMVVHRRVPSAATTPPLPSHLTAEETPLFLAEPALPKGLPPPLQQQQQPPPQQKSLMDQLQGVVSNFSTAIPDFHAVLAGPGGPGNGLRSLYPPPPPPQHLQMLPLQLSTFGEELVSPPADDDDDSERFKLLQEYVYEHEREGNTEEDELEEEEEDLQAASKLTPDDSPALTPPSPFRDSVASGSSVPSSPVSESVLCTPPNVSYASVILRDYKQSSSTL
pEC50: −log10 of the molar value.

| molecular.string | assayed.target | pEC50 |
| --- | --- | --- |
| O=C(O)[C@H]1CC[C@H]2CN[C@H](C(=O)O)[C@H]21 | Metabotropic glutamate receptor 1 (Homo sapiens) | < 3.00 |

====

target: Glutamate receptor ionotropic, kainate; test: Displacement of [3H]KAIN from kainate receptor in rat brain; type: tissue-based

| molecular.string | IC50 (µM) |
| --- | --- |
| O=C(O)[C@H]1CC[C@H]2CN[C@H](C(=O)O)[C@H]21 | 14 |

====

target: Metabotropic glutamate receptor 2 (Homo sapiens, UniProt Q14416); experiment: Activity against mGluR2
Sequence (Q14416 whole entry): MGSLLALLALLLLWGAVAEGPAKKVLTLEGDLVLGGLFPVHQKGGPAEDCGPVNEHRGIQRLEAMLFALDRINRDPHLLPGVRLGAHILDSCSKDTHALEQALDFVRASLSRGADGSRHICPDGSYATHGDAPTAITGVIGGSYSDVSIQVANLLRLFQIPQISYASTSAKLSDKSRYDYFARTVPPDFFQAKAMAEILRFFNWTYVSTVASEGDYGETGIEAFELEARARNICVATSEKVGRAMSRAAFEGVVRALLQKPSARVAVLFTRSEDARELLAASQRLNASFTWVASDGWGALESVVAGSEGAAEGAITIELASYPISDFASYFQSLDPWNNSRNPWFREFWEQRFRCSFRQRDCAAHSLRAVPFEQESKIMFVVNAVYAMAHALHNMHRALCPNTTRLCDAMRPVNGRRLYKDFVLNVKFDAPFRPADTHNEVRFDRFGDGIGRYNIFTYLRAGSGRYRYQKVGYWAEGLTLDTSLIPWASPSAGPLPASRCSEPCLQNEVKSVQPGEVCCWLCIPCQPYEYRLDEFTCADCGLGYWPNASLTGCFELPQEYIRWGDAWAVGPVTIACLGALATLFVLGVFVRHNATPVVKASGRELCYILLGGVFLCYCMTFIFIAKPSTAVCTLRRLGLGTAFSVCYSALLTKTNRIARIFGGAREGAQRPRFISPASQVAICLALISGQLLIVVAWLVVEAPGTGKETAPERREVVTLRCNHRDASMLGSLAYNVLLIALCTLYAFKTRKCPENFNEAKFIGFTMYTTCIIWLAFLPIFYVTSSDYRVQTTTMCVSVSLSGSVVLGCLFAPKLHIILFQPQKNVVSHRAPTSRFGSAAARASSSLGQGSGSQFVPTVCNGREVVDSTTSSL

| molecular.string | unit.label | EC50 |
| --- | --- | --- |
| O=C(O)[C@H]1CC[C@H]2CN[C@H](C(=O)O)[C@H]21 | mM | 1 |

====

target: Glutamate NMDA receptor; test: Displacement of [3H]CGP-39653 from NMDA preferring iGlu receptor in rat brain
measured.property: Ki (nM)

| molecular.string | measured.property | measured.number |
| --- | --- | --- |
| O=C(O)[C@H]1CC[C@H]2CN[C@H](C(=O)O)[C@H]21 | Ki | 2900 |

====

molecular target: Excitatory amino acid transporter 3 (Homo sapiens); test: Activity against human EAAT3 transfected in HEK293 cells
Sequence (P43005 whole entry): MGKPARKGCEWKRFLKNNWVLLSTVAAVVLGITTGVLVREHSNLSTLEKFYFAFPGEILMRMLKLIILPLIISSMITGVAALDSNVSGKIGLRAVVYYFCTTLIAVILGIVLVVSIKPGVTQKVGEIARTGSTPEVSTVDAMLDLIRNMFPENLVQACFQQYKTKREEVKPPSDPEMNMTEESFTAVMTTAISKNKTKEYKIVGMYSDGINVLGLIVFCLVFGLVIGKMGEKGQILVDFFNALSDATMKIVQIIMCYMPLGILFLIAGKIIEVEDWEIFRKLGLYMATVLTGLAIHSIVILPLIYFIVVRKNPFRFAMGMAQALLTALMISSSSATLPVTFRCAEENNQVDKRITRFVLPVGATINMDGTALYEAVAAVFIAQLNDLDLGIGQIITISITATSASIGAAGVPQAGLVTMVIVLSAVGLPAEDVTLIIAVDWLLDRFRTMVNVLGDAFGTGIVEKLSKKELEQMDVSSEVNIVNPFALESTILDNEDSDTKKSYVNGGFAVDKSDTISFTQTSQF
pKi: −log10 of the molar value.
pKi values, listed per item
measured.property: pKi

| compound | assayed.target | qualifying.sign | measured.number |
| --- | --- | --- | --- |
| O=C(O)[C@H]1CC[C@H]2CN[C@H](C(=O)O)[C@H]21 | Excitatory amino acid transporter 3 (Homo sapiens) | = | 4.34 |
| O=C(O)[C@H]1CC2CC1[C@@H](C(=O)O)N2 (some centres not stated) | Excitatory amino acid transporter 3 (Homo sapiens) | < | 3.40 |
